test system: MRS USA 300; assay: IC50, MIC and MBC against MRS USA 300; format: cell-based, Staphylococcus aureus; settings: Staphylococcus aureus, USA300
assayEndpoint: MIC (µM)
One number for each entry, in µM.

| compound | valueReported |
| --- | --- |
| C/C(=C\C(=O)OCCCCCCCCC(=O)O)C[C@@H]1OC[C@H](C[C@@H]2O[C@H]2[C@@H](C)[C@H](C)O)[C@@H](O)[C@H]1O [Mupirocin, reference compound] | 0.46 |

Please give MIC for each item listed below.
1. CCCCCc1cc(O)c2c(c1)OC(C)(C)c1ccc(C)cc1-2
2. CCCCCc1cc(O)c(C/C=C(\C)CCC=C(C)C)c(O)c1
3. C=C(C)[C@@H]1CCC(C)=C[C@H]1c1c(O)cc(CCCCC)cc1O

Output:
1: 8.05; 2: 5.28; 3: 5.31

###

test system: S. aureus 29213; experiment: IC50, MIC and MBC against S. aureus 29213; type: cell-based; conditions: Staphylococcus aureus, 29213
assayEndpoint: IC50
Answers without a unit are incomplete; give the number and then its unit.

Examples with answers:
| compound | IC50 |
| --- | --- |
| C=C(C)[C@@H]1CCC(C)=C[C@H]1c1c(O)cc(CCCCC)cc1O | 1.16 µg/mL |
| CCCCCc1cc(O)c2c(c1)OC(C)(CCC=C(C)C)C=C2 (stereo not drawn) | 6.96 µg/mL |
| CCCCCc1cc(O)c2c(c1)OC(C)(C)c1ccc(C)cc1-2 | 0.92 µg/mL |
| CCCCCc1cc(O)c(C/C=C(\C)CCC=C(C)C)c(O)c1 | 0.75 µg/mL |
| O=C(O)c1cn(C2CC2)c2cc(N3CCNCC3)c(F)cc2c1=O [Ciprofloxacin, reference compound] | 0.12 µg/mL |
| CCCCCc1cc(O)c(C/C=C(\C)CCC=C(C)C)c(O)c1C(=O)O | 2.05 µg/mL |
| COc1cccc(OC)c1C(=O)N[C@@H]1C(=O)N2[C@@H]1SC(C)(C)[C@@H]2C(=O)O [Methicillin, reference compound] | 0.65 µg/mL |
| C=C(C)[C@@H]1CCC(C)=C[C@H]1c1c(O)cc(CCCCC)c(C(=O)O)c1O | 6.83 µg/mL |

Turning now to a further compound:
Input: Name the recorded IC50 of the item C/C(=C\C(=O)OCCCCCCCCC(=O)O)C[C@@H]1OC[C@H](C[C@@H]2O[C@H]2[C@@H](C)[C@H](C)O)[C@@H](O)[C@H]1O [Mupirocin, reference compound] in your answer.
Output: 0.04 µg/mL
